A collection of compounds and their measured EC50
system_tested: human mGlu5a receptor (Homo sapiens (Human), UniProt P41594)
Sequence (P41594 other isoform, or with tags, fused parts or gaps): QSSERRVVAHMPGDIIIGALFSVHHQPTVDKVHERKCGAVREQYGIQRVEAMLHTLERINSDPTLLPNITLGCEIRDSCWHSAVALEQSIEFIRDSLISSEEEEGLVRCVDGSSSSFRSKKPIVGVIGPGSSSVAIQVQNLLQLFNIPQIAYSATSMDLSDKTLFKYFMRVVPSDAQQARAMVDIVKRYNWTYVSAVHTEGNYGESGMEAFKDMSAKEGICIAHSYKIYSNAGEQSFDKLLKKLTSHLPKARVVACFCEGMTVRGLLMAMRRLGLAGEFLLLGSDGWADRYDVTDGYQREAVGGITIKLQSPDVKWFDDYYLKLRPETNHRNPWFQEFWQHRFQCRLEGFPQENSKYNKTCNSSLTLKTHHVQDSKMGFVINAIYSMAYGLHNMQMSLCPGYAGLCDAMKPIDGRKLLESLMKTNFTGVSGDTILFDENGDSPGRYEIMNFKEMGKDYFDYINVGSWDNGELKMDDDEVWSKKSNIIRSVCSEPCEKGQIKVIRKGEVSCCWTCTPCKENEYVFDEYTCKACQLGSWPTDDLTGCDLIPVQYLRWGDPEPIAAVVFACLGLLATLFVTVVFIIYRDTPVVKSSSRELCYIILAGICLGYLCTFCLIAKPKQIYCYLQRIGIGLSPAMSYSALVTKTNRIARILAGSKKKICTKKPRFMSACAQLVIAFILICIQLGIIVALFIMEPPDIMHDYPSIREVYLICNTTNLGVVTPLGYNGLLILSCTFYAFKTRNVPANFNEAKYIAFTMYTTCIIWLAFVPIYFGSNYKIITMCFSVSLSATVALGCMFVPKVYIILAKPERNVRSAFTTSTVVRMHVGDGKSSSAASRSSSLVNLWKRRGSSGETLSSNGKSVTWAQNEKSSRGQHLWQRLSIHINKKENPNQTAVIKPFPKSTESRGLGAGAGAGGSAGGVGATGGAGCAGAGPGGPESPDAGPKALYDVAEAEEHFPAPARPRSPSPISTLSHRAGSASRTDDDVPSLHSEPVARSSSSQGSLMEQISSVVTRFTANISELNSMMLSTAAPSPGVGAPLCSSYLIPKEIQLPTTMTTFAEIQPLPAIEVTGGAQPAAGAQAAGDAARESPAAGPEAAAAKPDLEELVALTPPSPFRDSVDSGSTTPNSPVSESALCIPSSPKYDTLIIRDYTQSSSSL
experiment: Intracellular Ca2+ mobilization assay (mGlu5 PAM)
Assay type: cell-based
test_settings: HEK-293 cells stably transfected with human mGlu5a; L-glutamate added at EC20 after pre-incubation with test compound; read-out: EC50 (nM) mGlu5PAM
Expressed in nM, but write only the number.

INSERT INTO assay_data (compound, data_value) VALUES
  ('CC1(C)CN(c2ccc(C#Cc3ccccc3)cn2)C(=O)CO1', 29);

# ---- query compound ----
(Q) Record request: EC50 value, item CC1(C)CN(c2ncc(C#Cc3ccccc3)cc2F)C(=O)O1
(A) 30

Where do the numbers come from? From patent US9315498B2.
